test system: c-Abl (mouse); experiment: phosphorylation enrichment, bacterial display (enrichment ratio); higher = better substrate or ligand; peptides without Tyr show the background;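 note: 11-residue human phosphosite peptides and single-mutation variants displayed on the E. coli surface, counted by deep sequencing, each peptide's frequency after selection divided by its frequency in the unselected input library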;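 note: frequency after pTyr selection over input frequency; kinase dosed for 20-30% of maximal phosphorylation in three min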
Param threshold (0.9) applies to phosphorylation enrichment; output t when value >= threshold, f when value < threshold.

Inquiry: Reported phosphorylation enrichment at or above 0.9? MTRDIYRASFF [ALK_Y1278_A1274T_YF]
Reply text: t

Inquiry: Reported phosphorylation enrichment at or above 0.9? QTEAPYRFIYM [PTPN11_Y511_Q510P]
Reply text: t

Inquiry: Reported phosphorylation enrichment at or above 0.9? FADIAYNYHHG [PAH_Y166_R169H]
Reply text: f

Inquiry: Reported phosphorylation enrichment at or above 0.9? GKAFIYASHIV [ZNF573_Y229]
Reply text: t

Inquiry: Reported phosphorylation enrichment at or above 0.9? SLNEGYAKDFD [FBP1_Y216_R218K]
Reply text: f

New cases:
Inquiry: Reported phosphorylation enrichment at or above 0.9? ISGGGYRARPA [FGB_Y71]
Reply text: f

Inquiry: Reported phosphorylation enrichment at or above 0.9? FEPWVYSFSYE [PRKDC_Y647]
Reply text: f

###

molecular target: Fes (UniProt P07332); assay: phosphorylation enrichment, bacterial display (enrichment ratio); higher = better substrate or ligand; peptides without Tyr show the background
Sequence (P07332 whole entry, looked up): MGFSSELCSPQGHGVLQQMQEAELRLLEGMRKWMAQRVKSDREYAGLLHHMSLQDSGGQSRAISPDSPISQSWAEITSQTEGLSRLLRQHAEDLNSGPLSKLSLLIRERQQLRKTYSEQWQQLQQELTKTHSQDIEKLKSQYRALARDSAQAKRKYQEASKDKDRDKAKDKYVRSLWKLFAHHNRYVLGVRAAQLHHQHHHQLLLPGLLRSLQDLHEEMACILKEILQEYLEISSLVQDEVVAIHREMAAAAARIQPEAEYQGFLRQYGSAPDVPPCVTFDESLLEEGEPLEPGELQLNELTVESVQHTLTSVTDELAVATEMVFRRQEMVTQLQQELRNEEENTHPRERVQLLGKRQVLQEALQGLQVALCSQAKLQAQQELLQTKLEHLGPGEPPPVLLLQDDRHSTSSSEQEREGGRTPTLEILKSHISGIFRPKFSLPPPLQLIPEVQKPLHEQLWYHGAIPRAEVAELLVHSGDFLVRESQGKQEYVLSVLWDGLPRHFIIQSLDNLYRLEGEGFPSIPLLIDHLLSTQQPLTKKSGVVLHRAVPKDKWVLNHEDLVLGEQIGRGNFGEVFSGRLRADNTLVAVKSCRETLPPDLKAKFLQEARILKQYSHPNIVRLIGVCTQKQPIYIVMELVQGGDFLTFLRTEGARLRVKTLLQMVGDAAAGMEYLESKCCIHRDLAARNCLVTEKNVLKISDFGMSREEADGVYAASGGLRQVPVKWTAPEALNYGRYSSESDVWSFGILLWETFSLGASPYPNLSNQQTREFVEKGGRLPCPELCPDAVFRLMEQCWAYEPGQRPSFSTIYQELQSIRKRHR
Param threshold (0.9) applies to phosphorylation enrichment; output True when value >= threshold, False when value < threshold.

Previously resolved entries follow.
Inquiry: Reported phosphorylation enrichment at or above 0.9? IKGIRYLHHQG [GUCY2D_Y656_R660Q]
Reply text: False

Inquiry: Reported phosphorylation enrichment at or above 0.9? DAVAVCHGKIS [SH2D1A_Y7_Y7C]
Reply text: False

Inquiry: Reported phosphorylation enrichment at or above 0.9? KPFRVYCDMNT [FGB_Y269_YF]
Reply text: True

New cases:
Inquiry: Reported phosphorylation enrichment at or above 0.9? GVKLTYGDAQN [SLC28A1_Y404]
Reply text: False

Inquiry: Reported phosphorylation enrichment at or above 0.9? VECRVYAEDPY [PCCA_Y401]
Reply text: True

Inquiry: Reported phosphorylation enrichment at or above 0.9? SRGRQYQELPR [KCNH2_Y1009]
Reply text: False

Inquiry: Reported phosphorylation enrichment at or above 0.9? GGPAEYLRRAS [PKLR_Y38_G37E]
Reply text: False

###

target: MERTK (UniProt Q12866); experiment: phosphorylation enrichment, bacterial display (enrichment ratio); higher = better substrate or ligand; peptides without Tyr show the background
Sequence (Q12866 whole entry, looked up): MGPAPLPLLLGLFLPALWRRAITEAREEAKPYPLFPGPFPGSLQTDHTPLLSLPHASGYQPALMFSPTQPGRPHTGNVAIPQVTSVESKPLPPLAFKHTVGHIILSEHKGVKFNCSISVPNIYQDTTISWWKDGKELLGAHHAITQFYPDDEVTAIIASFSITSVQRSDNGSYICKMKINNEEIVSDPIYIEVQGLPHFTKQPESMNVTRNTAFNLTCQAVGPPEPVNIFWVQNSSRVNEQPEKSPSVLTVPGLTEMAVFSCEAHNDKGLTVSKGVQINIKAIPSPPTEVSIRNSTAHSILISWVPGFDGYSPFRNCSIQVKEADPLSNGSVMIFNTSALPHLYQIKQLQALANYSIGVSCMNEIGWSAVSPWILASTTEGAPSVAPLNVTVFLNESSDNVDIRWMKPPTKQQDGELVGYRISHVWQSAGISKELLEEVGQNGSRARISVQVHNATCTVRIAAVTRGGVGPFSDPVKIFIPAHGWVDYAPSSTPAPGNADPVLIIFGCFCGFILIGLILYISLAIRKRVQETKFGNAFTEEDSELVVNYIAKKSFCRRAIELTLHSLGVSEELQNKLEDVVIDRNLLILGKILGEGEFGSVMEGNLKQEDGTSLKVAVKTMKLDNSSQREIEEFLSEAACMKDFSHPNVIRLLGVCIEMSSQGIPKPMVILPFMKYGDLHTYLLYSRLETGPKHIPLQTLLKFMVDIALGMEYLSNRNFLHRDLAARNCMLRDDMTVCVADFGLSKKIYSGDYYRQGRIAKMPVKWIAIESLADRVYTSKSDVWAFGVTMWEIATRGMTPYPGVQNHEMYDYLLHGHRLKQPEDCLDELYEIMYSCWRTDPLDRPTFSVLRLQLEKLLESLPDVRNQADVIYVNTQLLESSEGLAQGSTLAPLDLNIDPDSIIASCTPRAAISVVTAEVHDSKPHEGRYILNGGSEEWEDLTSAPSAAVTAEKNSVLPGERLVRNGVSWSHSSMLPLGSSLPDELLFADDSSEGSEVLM
Param threshold (0.7) applies to phosphorylation enrichment; output 1 (yes) when value >= threshold, 0 (no) when value < threshold.

Previously resolved entries follow.
Inquiry: Reported phosphorylation enrichment at or above 0.7? DNLNNYVFQGQ [GRIN2A_Y978]
Reply text: 0 (no)

Inquiry: Reported phosphorylation enrichment at or above 0.7? KEKLCYVAPDF [ACTA1_Y220_L223P]
Reply text: 0 (no)

Inquiry: Reported phosphorylation enrichment at or above 0.7? VDESLYKTHPQ [HK1_Y417_G414E]
Reply text: 0 (no)

Inquiry: Reported phosphorylation enrichment at or above 0.7? HNLPIYEGYAL [ACTA1_Y168_V165L]
Reply text: 1 (yes)

Inquiry: Reported phosphorylation enrichment at or above 0.7? LSAPEYGPKLK [TBC1D14_Y46]
Reply text: 0 (no)

New cases:
Inquiry: Reported phosphorylation enrichment at or above 0.7? RHLLRYLSWTV [CLCNKB_Y93_S88R]
Reply text: 0 (no)

Inquiry: Reported phosphorylation enrichment at or above 0.7? EREYKYGAHNH [OAT_Y50_Y55H]
Reply text: 0 (no)

Inquiry: Reported phosphorylation enrichment at or above 0.7? PSPMPCASCQM [FOXL2_Y215_Y215C]
Reply text: 0 (no)

Inquiry: Reported phosphorylation enrichment at or above 0.7? HRAVEYLLTGI [RAD23A_Y197]
Reply text: 0 (no)

Inquiry: Reported phosphorylation enrichment at or above 0.7? FDCKWYIPLTD [BCR_Y756_YF]
Reply text: 0 (no)

Inquiry: Reported phosphorylation enrichment at or above 0.7? NYADPYRQLPY [CTNND2_Y503_Q507P]
Reply text: 1 (yes)

Inquiry: Reported phosphorylation enrichment at or above 0.7? HKLSFCEFDFE [BTK_Y40_Y40C_YF]
Reply text: 1 (yes)
